assay: Cytotoxicity against human H460 cells after 72 hrs by MTT assay; conditions: NCI-H460, 72 h
MEASURED METRIC: pIC50
Numbers only, as −log10 of the molar value.

Here is how some molecules turned out for pIC50.
COc1cc2c(Oc3ccc(N/C=C4\C(=O)NC(=O)N(c5ccc(F)cc5F)C4=O)cc3F)ccnc2cc1OCCCN1CCCCC1 5.96
COc1cc2c(Oc3ccc(N/C=C4\C(=O)NC(=O)N(c5ccc(C)cc5)C4=O)cc3F)ccnc2cc1OCCCN1CCC(C)CC1 7.23
COc1cc2c(Oc3ccc(N/C=C4\C(=O)NC(=O)N(c5ccc(C)cc5)C4=O)cc3F)ccnc2cc1OCCCN1CCN(C)CC1 7.15
COc1cc2c(Oc3ccc(N/C=C4\C(=O)NC(=O)N(c5c(C)cccc5C)C4=O)cc3F)ccnc2cc1OCCCN1CCCCC1 6.80
COc1cc2c(Oc3ccc(N/C=C4\C(=O)NC(=O)N(c5ccc(C)cc5)C4=O)cc3F)ccnc2cc1OCCCN1CCOCC1 7.21
COc1cc2c(Oc3ccc(N/C=C4\C(=O)NC(=O)N(c5ccc(F)cc5)C4=O)cc3F)ccnc2cc1OCCCN1CCN(C)CC1 6.92

Consider `COc1cc2c(Oc3ccc(N/C=C4\C(=O)NC(=O)N(c5ccc(F)c(Cl)c5)C4=O)cc3F)ccnc2cc1OCCCN1CCOCC1` . Its measured pIC50 is 6.92

* * *

assay: Cytotoxicity against human MKN45 cells after 72 hrs by MTT assay; conditions: MKN-45, 72 h
MEASURED METRIC: pIC50
Numbers only, as −log10 of the molar value.

Here is how some compounds turned out for pIC50.
COc1cc2c(Oc3ccc(N/C=C4\C(=O)NC(=O)N(c5c(C)cccc5C)C4=O)cc3F)ccnc2cc1OCCCN1CCN(C)CC1 6.35
COc1cc(N2C(=O)NC(=O)/C(=C\Nc3ccc(Oc4ccnc5cc(OCCCN6CCCC6)c(OC)cc45)c(F)c3)C2=O)c(OC)cc1Cl 6.46
COc1cc(N2C(=O)NC(=O)/C(=C\Nc3ccc(Oc4ccnc5cc(OCCCN6CCOCC6)c(OC)cc45)c(F)c3)C2=O)c(OC)cc1Cl 5.62
COc1cc2c(Oc3ccc(N/C=C4\C(=O)NC(=O)N(c5ccc(F)c(Cl)c5)C4=O)cc3F)ccnc2cc1OCCCN1CCN(C)CC1 7.18

Working through the 3 compounds below one at a time, give pIC50 for each.
1. COc1cc(N2C(=O)NC(=O)/C(=C\Nc3ccc(Oc4ccnc5cc(OCCCN6CCCCC6)c(OC)cc45)c(F)c3)C2=O)c(OC)cc1Cl
2. COc1cc2c(Oc3ccc(N/C=C4\C(=O)NC(=O)N(c5ccc(C)cc5)C4=O)cc3F)ccnc2cc1OCCCN1CCC(C)CC1
3. COc1cc2c(Oc3ccc(N/C=C4\C(=O)NC(=O)N(c5ccccc5)C4=O)cc3F)ccnc2cc1OCCCN1CCCC1

Output:
5.71
7.25
6.68

Working through the 3 compounds below one at a time, give pIC50 for each.
1. COc1cc2c(Oc3ccc(N/C=C4\C(=O)NC(=O)N(c5ccc(C)cc5)C4=O)cc3F)ccnc2cc1OCCCN1CCCCC1
2. COc1cc2c(Oc3ccc(N/C=C4\C(=O)NC(=O)N(c5ccc(C)cc5)C4=O)cc3F)ccnc2cc1OCCCN1CCN(C)CC1
3. COc1cc2c(Oc3ccc(N/C=C4\C(=O)NC(=O)N(c5c(C)cccc5C)C4=O)cc3F)ccnc2cc1OCCCN1CCCCC1

Output:
1: 6.72; 2: 6.80; 3: 6.31

Working through the 4 compounds below one at a time, give pIC50 for each.
1. COc1cc2c(Oc3ccc(N/C=C4\C(=O)NC(=O)N(c5ccc(F)c(Cl)c5)C4=O)cc3F)ccnc2cc1OCCCN1CCCC1
2. COc1cc2c(Oc3ccc(N/C=C4\C(=O)NC(=O)N(c5ccccc5C(F)(F)F)C4=O)cc3F)ccnc2cc1OCCCN1CCCC1
3. COc1cc2c(Oc3ccc(N/C=C4\C(=O)NC(=O)N(c5c(C)cccc5C)C4=O)cc3F)ccnc2cc1OCCCN1CCC(C)CC1
4. COc1cc2c(Oc3ccc(N/C=C4\C(=O)NC(=O)N(c5ccccc5C(F)(F)F)C4=O)cc3F)ccnc2cc1OCCCN1CCOCC1

Output:
[7.14, 5.85, 6.89, 4.74]
